target_or_system: T1, RBFOX1 RRM RbFoxmut (Fox-RRM*) (Homo sapiens, UniProt Q9NWB1 109-208, R118D;E147R;N151S;E152T)
T1 sequence: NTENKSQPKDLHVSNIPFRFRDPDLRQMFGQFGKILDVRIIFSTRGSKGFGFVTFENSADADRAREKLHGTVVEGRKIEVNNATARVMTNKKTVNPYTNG
protocol_description: EMSA; HiTS-Eq, 1 nM pool, 10 min; buffer printed only for the single-RNA assays: 10 mM Tris pH 7.5, 150 mM NaCl, 3.4 mM EDTA, 0.001% NP-40, 30 C
conditions: tags: His6 N-terminal (pET28a); label: 5' 32P
Over roughly 16,000 sequences, “ka relative to ugcaugu” has its median near 0.096; the highest 2% begin near 0.35. What follows is part of a selection rich in the highest values, with near analogues and random picks from the rest.
measure: binding signal

Challenge: Endpoint output: binding signal of GAACGUU (DNA:RNA) RNA: GGGAGACCGGAAUUCAGAUUGUCCGAACGUUUUAAAUCCCGUCGUAGCCACCA DNA 1: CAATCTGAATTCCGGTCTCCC DNA 2: TGGTGGCTACGACGGGATT . Value?
Response given: 0.199 KA relative to UGCAUGU

Challenge: Another binder to check: CGGGUCG (DNA:RNA) RNA: GGGAGACCGGAAUUCAGAUUGUCCCGGGUCGUUAAAUCCCGUCGUAGCCACCA DNA 1: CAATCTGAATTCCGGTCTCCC DNA 2: TGGTGGCTACGACGGGATT
Response given: 0.259 KA relative to UGCAUGU

Challenge: Now consider GUCGGGG (DNA:RNA) RNA: GGGAGACCGGAAUUCAGAUUGUCCGUCGGGGUUAAAUCCCGUCGUAGCCACCA DNA 1: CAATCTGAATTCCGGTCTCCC DNA 2: TGGTGGCTACGACGGGATT .
Response given: 0.101 KA relative to UGCAUGU

Challenge: Try UUUGUUC (DNA:RNA) RNA: GGGAGACCGGAAUUCAGAUUGUCCUUUGUUCUUAAAUCCCGUCGUAGCCACCA DNA 1: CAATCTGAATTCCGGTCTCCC DNA 2: TGGTGGCTACGACGGGATT next.
Response given: 0.0935 KA relative to UGCAUGU

Challenge: Same again, this time with GGGUUAA (DNA:RNA) RNA: GGGAGACCGGAAUUCAGAUUGUCCGGGUUAAUUAAAUCCCGUCGUAGCCACCA DNA 1: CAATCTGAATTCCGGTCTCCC DNA 2: TGGTGGCTACGACGGGATT
Response given: 0.0954 KA relative to UGCAUGU

Challenge: Please do the same for UUGAACC (DNA:RNA) RNA: GGGAGACCGGAAUUCAGAUUGUCCUUGAACCUUAAAUCCCGUCGUAGCCACCA DNA 1: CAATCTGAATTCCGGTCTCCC DNA 2: TGGTGGCTACGACGGGATT as well.
Response given: 0.129 KA relative to UGCAUGU

Challenge: And then CUGCCGC (DNA:RNA) RNA: GGGAGACCGGAAUUCAGAUUGUCCCUGCCGCUUAAAUCCCGUCGUAGCCACCA DNA 1: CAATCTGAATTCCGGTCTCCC DNA 2: TGGTGGCTACGACGGGATT , what is it?
Response given: 0.116 KA relative to UGCAUGU

Challenge: Next up: CGGUUGA (DNA:RNA) RNA: GGGAGACCGGAAUUCAGAUUGUCCCGGUUGAUUAAAUCCCGUCGUAGCCACCA DNA 1: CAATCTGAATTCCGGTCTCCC DNA 2: TGGTGGCTACGACGGGATT
Response given: 0.139 KA relative to UGCAUGU

Challenge: Let us now turn to CACCGGG (DNA:RNA) RNA: GGGAGACCGGAAUUCAGAUUGUCCCACCGGGUUAAAUCCCGUCGUAGCCACCA DNA 1: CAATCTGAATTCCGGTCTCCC DNA 2: TGGTGGCTACGACGGGATT
Response given: 0.0671 KA relative to UGCAUGU

Challenge: Proceed to CCUCACA (DNA:RNA) RNA: GGGAGACCGGAAUUCAGAUUGUCCCCUCACAUUAAAUCCCGUCGUAGCCACCA DNA 1: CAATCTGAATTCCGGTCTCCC DNA 2: TGGTGGCTACGACGGGATT
Response given: 0.108 KA relative to UGCAUGU

Challenge: Now this one: GGGGUUG (DNA:RNA) RNA: GGGAGACCGGAAUUCAGAUUGUCCGGGGUUGUUAAAUCCCGUCGUAGCCACCA DNA 1: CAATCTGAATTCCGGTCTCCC DNA 2: TGGTGGCTACGACGGGATT
Response given: 0.609 KA relative to UGCAUGU

Challenge: Continue with GUUUAAG (DNA:RNA) RNA: GGGAGACCGGAAUUCAGAUUGUCCGUUUAAGUUAAAUCCCGUCGUAGCCACCA DNA 1: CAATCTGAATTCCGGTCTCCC DNA 2: TGGTGGCTACGACGGGATT
Response given: 0.131 KA relative to UGCAUGU

Challenge: Would you mind doing GGGUUGA (DNA:RNA) RNA: GGGAGACCGGAAUUCAGAUUGUCCGGGUUGAUUAAAUCCCGUCGUAGCCACCA DNA 1: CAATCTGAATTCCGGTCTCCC DNA 2: TGGTGGCTACGACGGGATT as well?
Response given: 0.356 KA relative to UGCAUGU

Challenge: Follow-up item: GUAACCG (DNA:RNA) RNA: GGGAGACCGGAAUUCAGAUUGUCCGUAACCGUUAAAUCCCGUCGUAGCCACCA DNA 1: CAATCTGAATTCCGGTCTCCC DNA 2: TGGTGGCTACGACGGGATT
Response given: 0.114 KA relative to UGCAUGU

Challenge: And GGGGUCG (DNA:RNA) RNA: GGGAGACCGGAAUUCAGAUUGUCCGGGGUCGUUAAAUCCCGUCGUAGCCACCA DNA 1: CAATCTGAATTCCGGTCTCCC DNA 2: TGGTGGCTACGACGGGATT ?
Response given: 0.357 KA relative to UGCAUGU

Challenge: // same read-out, input: GGCACGG (DNA:RNA) RNA: GGGAGACCGGAAUUCAGAUUGUCCGGCACGGUUAAAUCCCGUCGUAGCCACCA DNA 1: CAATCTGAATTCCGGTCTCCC DNA 2: TGGTGGCTACGACGGGATT
Response given: 0.149 KA relative to UGCAUGU

Challenge: Likewise for UCGAGUG (DNA:RNA) RNA: GGGAGACCGGAAUUCAGAUUGUCCUCGAGUGUUAAAUCCCGUCGUAGCCACCA DNA 1: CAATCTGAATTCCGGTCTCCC DNA 2: TGGTGGCTACGACGGGATT ?
Response given: 0.167 KA relative to UGCAUGU

src = paper PMC9911399
